Recorded growth values for a group of compounds are listed next.
Test system: SK-MEL-5 melanoma
assay comment: NCI-60 one-dose screen, 48 h (100 = growth as untreated, 0 = no growth, -100 = all killed)
assay conditions: 10 µM unless noted
Compounds without any hit were thinned out: in the full panel of roughly 83,000, 20% have a hit.
measured quantity: growth (%)

compound=C/C(=C(/c1ccc(Cl)cc1)c1ccc(OCCN2CCCC2)cc1)c1ccc(Cl)cc1 measured_quantity=growth experimental_result=82.4
compound="COc1ccc(/C=N/C2=C(C#N)C(c3cccc(Cl)c3)c3c(ccc4ccccc34)O2)cc1 (configuration not stated)" measured_quantity=growth experimental_result=31.3
compound=COc1ccc2c(c1)[n+]([O-])c(C(=O)/C=C/C=C(\Cl)c1cc(OC)c(OC)c(OC)c1)c(C)[n+]2[O-] measured_quantity=growth experimental_result=121
compound=CCOC(=O)c1ccc2[nH]c(O)c(C(=Nc3ccc(N(C)C(=O)CN4CCN(C)CC4)cc3)c3ccccc3)c2c1 measured_quantity=growth experimental_result=-94
compound="CC(O)c1cnc(/C=C2\\SC(=S)N(Cc3ccccc3)C2=O)s1 (configuration not stated)" measured_quantity=growth experimental_result=88.8
compound=CS(=O)(=O)Nc1cc(-c2ccc3ncnc(Nc4c(Cl)ccc5c4OCO5)c3c2)cnc1Cl measured_quantity=growth experimental_result=-93
compound=CCN(CC)CCOc1ccc(-c2c(-c3ccccc3)c(=O)oc3ccccc23)cc1 measured_quantity=growth experimental_result=71.6
compound=COc1ccc(-c2nnc3n(C)c(=O)c4ccccc4n23)cc1N measured_quantity=growth experimental_result=11.4
compound="CC(C)NC1CCC(Nc2ccnc3cc(Cl)ccc23)CC1 (configuration not stated)" measured_quantity=growth experimental_result=90.8
compound="OCCCC1CCN(C(Cc2ccccc2)c2ccccc2)CC1 (configuration not stated)" measured_quantity=growth experimental_result=101
compound=COC(=O)c1c2c(c[n+]([O-])c1C)C(=O)C(NCc1ccccc1)=CC2=O measured_quantity=growth experimental_result=-97
compound="CCn1cc(C(=O)N/N=C/c2cccs2)c(=O)c2cc(F)c(N3CCNC(C)C3)c(F)c21 (configuration not stated)" measured_quantity=growth experimental_result=69.8
compound=C=CCn1c(SCC(=O)NCc2cc(C)c(O)c(C)c2)nc2ccc(Cl)cc2c1=O measured_quantity=growth experimental_result=93.2
compound=O=C(CCCCCCN1CC(=O)N2[C@H](c3cc(Br)cs3)c3[nH]c4ccccc4c3C[C@H]2C1=O)NO measured_quantity=growth experimental_result=27
compound="COc1cc2c(c(OC)c1OC)C(=O)CC(c1cccc(NC(=O)c3ccc(Br)cc3)c1)O2 (configuration not stated)" measured_quantity=growth experimental_result=4.06
compound=CC(C)OC(=O)c1ccc2[nH]c(O)c(C(=Nc3ccc(N(C)C(=O)CN4CCN(C)CC4)cc3)c3ccccc3)c2c1 measured_quantity=growth experimental_result=-95.4
compound=OB(O)c1cccc(-c2nc3ccc4[nH]ncc4c3c3c2CCCC3)c1 measured_quantity=growth experimental_result=68.1
compound="COc1ccc(C(=O)C2C(c3ccc(OC)cc3)CN(C)C23C(=O)Nc2ccccc23)cc1 (configuration not stated)" measured_quantity=growth experimental_result=99.1
compound="CN(C)CCCC1(c2ccc(F)cc2)OCc2cc(-c3cccc4[nH]ccc34)ccc21 (configuration not stated)" measured_quantity=growth experimental_result=-84.1
compound="CCCCN1C(=O)/C(=c2\\sc3n(c2=O)C2C(NN=3)N(CC)C(=O)N2CC)c2ccccc21 (configuration not stated)" measured_quantity=growth experimental_result=29.2
compound=CCOC(=O)/C=C1\S/C(=N\Nc2cc(=O)[nH]c3ccc(Cl)cc23)N(c2ccccc2)C1=O measured_quantity=growth experimental_result=98.9
compound=O=Cc1ccc([N+](=O)[O-])s1 measured_quantity=growth experimental_result=102
compound=CO/N=C(/C)c1ccc(NC(=O)CSc2nnc(-c3ccncc3)n2-c2ccccc2)cc1 measured_quantity=growth experimental_result=25.2
compound=Cc1ccc(Cl)cc1Nc1nc(C(F)(F)F)ccc1C(=O)N/N=C/c1cccnc1 measured_quantity=growth experimental_result=-16.4
compound=O=c1oc2ccc([N+](=O)[O-])cc2cc1Br measured_quantity=growth experimental_result=102
compound=CN1CCN(C(=O)c2ccc(NC(=O)Nc3ccc(-c4nc(N5CCOCC5)c5cccn5n4)cc3)cc2)CC1 measured_quantity=growth experimental_result=-61.6
compound=CC1=Nc2cnc(Nc3ccc(OCCN4CCCC4)cc3)nc2Nc2ccccc21 measured_quantity=growth experimental_result=71.6
compound=CCOC(=O)C(=Cc1cccc(Cl)c1)C(=O)OCC measured_quantity=growth experimental_result=53.5
compound=O=C1C(Cl)=C(Oc2ccccc2)C(=O)c2ccccc21 measured_quantity=growth experimental_result=74.8
compound=c1ccc(CNc2c3ccccc3nc3ccccc23)cc1 measured_quantity=growth experimental_result=63.1
compound=Oc1c(Cl)cc(Cl)c2ccc(Cn3cc(-c4ccc(C(F)(F)F)cc4)nn3)nc12 measured_quantity=growth experimental_result=98.8
compound=CN(C)Cc1ccc(NC(=O)c2cncc(C#Cc3cnc(N)c4ncccc34)c2)cc1F measured_quantity=growth experimental_result=77.3

---

Tested on: EKVX NSCLC
assay comment: NCI-60 one-dose screen, 48 h
assay conditions: 10 µM unless noted
This is part of a sample that, as a whole, favours compounds with a hit. Of some 83,000 tested, about 20% had one in any assay. Active and inactive are the calls of the source. How the source made its calls: active means growth percent below 10; inactive means the rest.
Possible outcomes: true (1) = active, false (0) = inactive

compound="COc1cc(N2C(=O)[C@H](O)C2c2ccc(SC)cc2)cc(OC)c1OC (stereo partly drawn)" group="false (0)"
compound=CCCCC[C@@H]1Cc2cc(O)c(C(=O)O)c3c2[C@H](C[C@]2(OC[C@@H](CC(=O)[C@@](C)(CC)C(=O)OC)[C@@H]2C)O3)O1 group="false (0)"
compound=CCOC(=O)c1c(C)c2c(n1C)CSc1cc(C(=O)c3ccccc3)c(=O)[nH]c1-2 group="false (0)"
compound="Cc1cnc(C(=O)NNc2nc3sc4c(c3c(=O)n2C)C(C)CCC4)cn1 (stereo not drawn)" group="true (1)"
compound="CCc1ccc(C(=O)/C=C/C23c4ccccc4C(c4ccccc42)C2C(=O)NC(=O)C23)cc1 (stereo not drawn)" group="false (0)"
compound=O=C(O)c1ccc(-n2cc(/C=N/Nc3ccc(F)cc3)c(-c3cc4ccccc4oc3=O)n2)cc1 group="false (0)"
compound=O=C(O)CNC1=C(Cl)C(=O)c2ccccc2C1=O group="false (0)"
compound=CC(C)=CCC[C@](C)(O)[C@H]1CC[C@]2(C)[C@@H]1CC[C@@H]1[C@@]3(C)Cc4nccnc4C(C)(C)[C@@H]3CC[C@]12C group="false (0)"
compound=O=C(O)/C(=C\c1ccc(Cl)cc1)c1ccc(Cl)cc1 group="false (0)"
compound=C/C(=N\NC(=O)c1ccccc1O)c1cccc(/C(C)=N/NC(=O)c2ccccc2O)n1 group="false (0)"
compound=COc1ccc2nc(NC(=O)CSc3nnc4n3S(=O)(=O)c3ccccc3N4C)sc2c1 group="false (0)"
compound="COc1ccc(/C=N/C2=C(C#N)C(c3cccc(Cl)c3)c3c(ccc4ccccc34)O2)cc1 (stereo not drawn)" group="false (0)"
compound=CN(CCn1sc(=O)n(Cc2ccccc2)c1=O)Cc1ccc2c(Cl)cc(Cl)c(O)c2n1 group="false (0)"

---

Recorded growth values for a group of compounds are listed next.
System: RXF 393 renal
assay comment: NCI-60 one-dose screen, 48 h (100 = growth as untreated, 0 = no growth, -100 = all killed)
assay conditions: 10 µM unless noted
This is part of a sample that, as a whole, favours compounds with a hit. Of some 83,000 tested, about 20% had one in any assay.
measured quantity: growth (%)

compound=COc1cc(OC)c2sc(-c3ccc(-n4cncc4-c4ccc(OC)c(OC)c4)cc3)nc2c1 tested_on="RXF 393 renal" measured_quantity=growth experimental_result=12.1
compound=Cc1ccc(Sc2nnc(/N=C3\C(=O)Nc4ccccc43)s2)cc1 tested_on="RXF 393 renal" measured_quantity=growth experimental_result=120
compound=CCC(=C(c1ccc(OCCN2CCCC2)cc1)c1ccc(OCCN2CCCC2)cc1)c1ccc(Cl)cc1 tested_on="RXF 393 renal" measured_quantity=growth experimental_result=13.7
compound=COc1ccc(-c2ccc3cnc4sc(-c5ccc(OC)cc5)nc4c3n2)cc1 tested_on="RXF 393 renal" measured_quantity=growth experimental_result=107
compound=CO/N=C(/C)c1ccc(NC(=O)CSc2nnc(-c3ccncc3)n2-c2ccccc2)cc1 tested_on="RXF 393 renal" measured_quantity=growth experimental_result=4.02
compound=CN(CCOc1ccc(C#N)cc1)CCOc1ccc(C#N)cc1 tested_on="RXF 393 renal" measured_quantity=growth experimental_result=53.7
compound=O=[N+]([O-])c1ccc(S(=O)(=O)N2CCN(C3=NS(=O)(=O)c4ccccc4N3c3ccccc3)CC2)cc1 tested_on="RXF 393 renal" measured_quantity=growth experimental_result=91.7
compound=CN(C)CCNC(=O)c1cccc(-c2cnc3ccc(-c4ccc5c(c4)OCO5)nn23)c1 tested_on="RXF 393 renal" measured_quantity=growth experimental_result=42.3
compound=O=C1COCCN1c1ccc(Nc2nc(Cl)nc(OCc3cn(Cc4ccccc4)nn3)n2)cc1 tested_on="RXF 393 renal" measured_quantity=growth experimental_result=90.7
compound=O=C(CCC(=O)N/N=C/c1ccccc1O)N/N=C/c1ccccc1O tested_on="RXF 393 renal" measured_quantity=growth experimental_result=58.9
compound=CCOc1nc(-c2ccccc2)cc2c(O)c(C(=O)NN)[nH]c(=O)c12 tested_on="RXF 393 renal" measured_quantity=growth experimental_result=108
compound=Cc1nc2sc(C(=O)Nc3ccccc3)c(N)c2cc1C(=O)c1ccccc1 tested_on="RXF 393 renal" measured_quantity=growth experimental_result=-0.48
compound=Brc1ccc2[nH]cc(-c3nonc3-c3c[nH]c4ccccc34)c2c1 tested_on="RXF 393 renal" measured_quantity=growth experimental_result=77.6
compound=COc1cc(-c2nc(SCC(C)C)nc(Nc3cccc4ccccc34)c2C#N)cc(OC)c1OC tested_on="RXF 393 renal" measured_quantity=growth experimental_result=119
compound="Cc1ccc(S(=O)(=O)N2CCCC2CO)cc1 (stereo not drawn)" tested_on="RXF 393 renal" measured_quantity=growth experimental_result=103
compound="O=S(=O)(Nc1ccccc1)c1ccc(C2CC3(Cl)C(Cl)=C(Cl)C2(Cl)C3(Cl)Cl)cc1 (stereo not drawn)" tested_on="RXF 393 renal" measured_quantity=growth experimental_result=32.9
compound=O=C1/C(=C/c2ccc(Cl)cc2)COc2ccc(O)c(O)c21 tested_on="RXF 393 renal" measured_quantity=growth experimental_result=9.7
compound=COc1ccc(C(=S)N2CCN(c3ccccc3Cl)CC2)cc1OC tested_on="RXF 393 renal" measured_quantity=growth experimental_result=111
compound=Cc1nnc(NC(=O)c2nc(S(=O)(=O)Cc3ccc(F)cc3)ncc2Cl)s1 tested_on="RXF 393 renal" measured_quantity=growth experimental_result=87.3
compound="CC[C@@H](C(=O)[C@@H](C)[C@@H](O)[C@H](C)[C@@H]1O[C@@H]([C@@H](CC)C(=O)NCCc2ccc(F)cc2)CC[C@@H]1C)C1O[C@]2(C=CC(=O)[C@]3(CC[C@@](C)([C@H]4CC[C@](O)(CC)[C@H](C)O4)O3)O2)[C@H](C)C[C@@H]1C (stereo partly drawn)" tested_on="RXF 393 renal" measured_quantity=growth experimental_result=42.7
compound=CC/C(=C(/c1ccc(Cl)cc1)c1ccc(OCCN2CCCC2)cc1)c1ccc(OC)cc1 tested_on="RXF 393 renal" measured_quantity=growth experimental_result=67
compound="C=C1CC[C@@H]2[C@](C)(COC(C)=O)[C@H](OC(C)=O)CC[C@@]2(C)[C@@H]1CC(Sc1ccccc1)C1=CCOC1=O (stereo partly drawn)" tested_on="RXF 393 renal" measured_quantity=growth experimental_result=5.01
compound=O=C1N[C@@H]2NC(=[N+]3CCOCC3)N[C@@H]2N1 tested_on="RXF 393 renal" measured_quantity=growth experimental_result=116
compound=CCCCC(=O)Nc1ncc(Cc2ccc(Cl)cc2)s1 tested_on="RXF 393 renal" measured_quantity=growth experimental_result=56.4
compound=CN1CCN(C(=O)c2ccc(NC(=O)Nc3ccc(-c4nc(N5CCOCC5)c5cccn5n4)cc3)cc2)CC1 tested_on="RXF 393 renal" measured_quantity=growth experimental_result=-39.5
compound=CS(=O)(=O)Nc1cc(-c2ccc3ncnc(Nc4c(Cl)ccc5c4OCO5)c3c2)cnc1Cl tested_on="RXF 393 renal" measured_quantity=growth experimental_result=-45.8
compound=CSc1nc2sc3c(c2c(=O)n1-c1ccc([N+](=O)[O-])cc1)CCCCC3 tested_on="RXF 393 renal" measured_quantity=growth experimental_result=84.1
compound=O=C(Nc1ccc(-c2nc(N3CCOCC3)c3cccn3n2)cc1)Nc1cccnc1 tested_on="RXF 393 renal" measured_quantity=growth experimental_result=-30.5
compound=Clc1ccc2c(c1)N(c1ncnc3ccc(-c4cnc5[nH]ncc5c4)cc13)CC2 tested_on="RXF 393 renal" measured_quantity=growth experimental_result=-10.5
compound=Cc1ccccc1Cn1cnc2ccc(-c3cc(NC(=O)c4ccc(NC5CCN(C)CC5)cc4)n[nH]3)cc21 tested_on="RXF 393 renal" measured_quantity=growth experimental_result=4.62
compound="CN1C(=O)N(C)C2Nn3c(s/c(=C\\c4ccc(C(F)(F)F)cc4)c3=O)=NC21 (stereo not drawn)" tested_on="RXF 393 renal" measured_quantity=growth experimental_result=95.7
compound=CCOC(=O)CSc1ncnc2c1c(-c1ccccc1)c(-c1ccccc1)n2-c1ccc(C)cc1 tested_on="RXF 393 renal" measured_quantity=growth experimental_result=105
compound=Fc1ccc(-c2nn(-c3ccccc3)cc2-c2nc3ccccc3o2)cc1 tested_on="RXF 393 renal" measured_quantity=growth experimental_result=105

These data points were gathered from PubChem BioAssay (NCI).
